Source listed as patent US6858620B2.

Target: human recombinant PDE5 (Homo sapiens)
Assay: Inhibitory effect on cGMP-PDE (PDE5 IC50, one-step assay)
Settings: in vitro, 0.15 μM 8-[H3]-cGMP, 30 minutes incubation
Method: The compounds of structural formula (I) were tested for an ability to inhibit PDE5. The ability of a compound to inhibit PDE5 activity is related to the IC50 value for the compound, i.e., the concentration of inhibitor required for 50% inhibition of enzyme activity. The IC50 value for compounds of structural formula (I) were determined using recombinant human PDE5. cGMP-PDE activity of compounds of the present invention was measured using a one-step assay adapted from Wells et al., Biochim. Biophys. […]
pIC50: −log10 of the molar value.
reported-property: pIC50

O=C1CC(=O)N2C1Cc1c([nH]c3ccccc13)C2c1ccc2c(c1)OCO2 (centres unmarked) | 6.70
CCCCN1C(=O)[C@@H]2Cc3c([nH]c4ccccc34)[C@H](c3ccc(OC)cc3)N2C1=S (racemic) | 7.70
O=C1OCC2Cc3c([nH]c4ccccc34)C(c3ccc4c(c3)OCO4)N12 (centres unmarked) | 7.15
CN1C(=O)[C@@H]2Cc3c([nH]c4ccccc34)[C@@H](c3ccc4c(c3)OCO4)N2C1=S | 7.92
O=S1OCC2Cc3c([nH]c4ccccc34)C(c3ccc4c(c3)OCO4)N21 (centres unmarked) | 7.70

(a) O=C1OC(=O)N2[C@H](c3ccc4c(c3)OCO4)c3[nH]c4ccccc4c3C[C@H]12
(b) COc1ccc([C@@H]2c3[nH]c4ccccc4c3C[C@H]3C(=O)N(Cc4ccccc4)CN23)cc1 (racemic)
Exam item: # returns the entry with the larger pIC50; inputs a and b Lab log: write the label of the selected item as the result.
Marked response: b
(b: 7.22, a: 6.69)

(1) O=C1OC(=S)N2[C@H](c3ccc4c(c3)OCO4)c3[nH]c4ccccc4c3C[C@H]12
(2) CN1C(=O)N2[C@H](c3ccc4c(c3)OCO4)c3[nH]c4ccccc4c3C[C@H]2C1=S
Exam item: Consider entries 1 and 2 . Which has the numerically lower pIC50? Lab log: write the label of the selected item as the result.
Marked response: 1

(P) CN1C[C@@H]2Cc3c([nH]c4ccccc34)[C@H](c3ccc4c(c3)OCO4)N2C1=O (racemic)
(Q) O=C1CCN2[C@H](c3ccc4c(c3)OCO4)c3[nH]c4ccccc4c3C[C@H]12 (racemic)
Exam item: Consider entries P and Q . Which has the numerically lower pIC50? Lab log: write the label of the selected item as the result.
Marked response: Q
